For Dihydroorotate dehydrogenase (quinone), mitochondrial (Homo sapiens), measured IC50 is reported for the entries below.

Task: Can you share its IC50? I mean this molecule: `COc1cccc(Nc2nc(N)nc3c2-c2ccccc2C3)c1`
Output: > 200 µM

Task: Would you kindly repeat that for `Nc1nc2c(c(Nc3ccccc3)n1)-c1ccccc1C2` ?
Output: > 200 µM

* * *

Target: Dihydrofolate reductase (Homo sapiens, UniProt P00374)
Sequence (P00374 whole entry): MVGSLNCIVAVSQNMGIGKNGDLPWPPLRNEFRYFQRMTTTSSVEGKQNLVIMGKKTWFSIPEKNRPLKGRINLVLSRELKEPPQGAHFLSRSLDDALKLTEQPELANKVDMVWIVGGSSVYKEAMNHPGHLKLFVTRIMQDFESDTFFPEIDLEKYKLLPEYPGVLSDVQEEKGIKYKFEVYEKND
Listing of entries alongside the reported IC50.

Example entries begin here.
| smiles.str | observed.property | reported.value |
| --- | --- | --- |
| Nc1nc2c(c(Nc3ccc(Cl)cc3F)n1)-c1ccccc1C2 | IC50 | > 16 µM |
| Nc1nc2c(c(Nc3cccc(Br)c3)n1)-c1ccccc1C2 | IC50 | > 14 µM |
| Nc1nc2c(c(Nc3ccc(F)c(Cl)c3)n1)-c1ccccc1C2 | IC50 | > 16 µM |
| Nc1nc2c(c(Nc3ccc(Cl)cc3)n1)-c1ccccc1C2 | IC50 | > 16 µM |

Now look at this entry.
Task: Can you share its IC50? I mean this compound: `CC(C)c1ccc(Nc2nc(N)nc3c2-c2ccccc2C3)cc1`
Output: > 16 µM

* * *

Molecular target: Bifunctional dihydrofolate reductase-thymidylate synthase (Toxoplasma gondii, UniProt Q07422)
Sequence (Q07422 whole entry): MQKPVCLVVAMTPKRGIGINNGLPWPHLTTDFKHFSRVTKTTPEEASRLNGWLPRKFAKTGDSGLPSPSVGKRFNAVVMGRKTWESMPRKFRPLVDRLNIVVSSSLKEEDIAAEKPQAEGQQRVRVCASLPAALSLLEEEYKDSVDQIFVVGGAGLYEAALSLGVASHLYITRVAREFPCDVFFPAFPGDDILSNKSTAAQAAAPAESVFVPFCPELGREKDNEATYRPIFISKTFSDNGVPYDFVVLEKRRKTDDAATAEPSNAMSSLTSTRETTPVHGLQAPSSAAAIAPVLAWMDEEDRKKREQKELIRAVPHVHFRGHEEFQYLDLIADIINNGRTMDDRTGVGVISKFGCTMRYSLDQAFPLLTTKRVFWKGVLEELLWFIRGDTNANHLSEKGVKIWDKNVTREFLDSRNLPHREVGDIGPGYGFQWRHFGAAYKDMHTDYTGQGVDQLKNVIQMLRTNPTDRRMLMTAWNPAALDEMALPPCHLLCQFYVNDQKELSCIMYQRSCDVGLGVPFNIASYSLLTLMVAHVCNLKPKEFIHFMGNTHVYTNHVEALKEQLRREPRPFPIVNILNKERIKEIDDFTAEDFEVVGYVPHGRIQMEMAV
Assay: Inhibition of Toxoplasma gondii DHFR
pIC50: −log10 of the molar value.
observed.property: pIC50

Example entries begin here.
| smiles.str | pIC50 |
| --- | --- |
| Nc1nc2c(c(Nc3cccc(Br)c3)n1)-c1ccccc1C2 | < 4.85 |
| Nc1nc2c(c(Nc3ccc(Cl)cc3F)n1)-c1ccccc1C2 | < 4.80 |
| CC(C)c1ccc(Nc2nc(N)nc3c2-c2ccccc2C3)cc1 | < 4.80 |
| Nc1nc2c(c(Nc3ccc(F)c(Cl)c3)n1)-c1ccccc1C2 | < 4.80 |

Now look at this entry.
Task: Can you share its pIC50? I mean this compound: `Nc1nc2c(c(Nc3ccc(Cl)cc3)n1)-c1ccccc1C2`
Output: < 4.80

* * *

For UniProt P35968, measured pIC50 is reported for the entries below.
Sequence (P35968 whole entry): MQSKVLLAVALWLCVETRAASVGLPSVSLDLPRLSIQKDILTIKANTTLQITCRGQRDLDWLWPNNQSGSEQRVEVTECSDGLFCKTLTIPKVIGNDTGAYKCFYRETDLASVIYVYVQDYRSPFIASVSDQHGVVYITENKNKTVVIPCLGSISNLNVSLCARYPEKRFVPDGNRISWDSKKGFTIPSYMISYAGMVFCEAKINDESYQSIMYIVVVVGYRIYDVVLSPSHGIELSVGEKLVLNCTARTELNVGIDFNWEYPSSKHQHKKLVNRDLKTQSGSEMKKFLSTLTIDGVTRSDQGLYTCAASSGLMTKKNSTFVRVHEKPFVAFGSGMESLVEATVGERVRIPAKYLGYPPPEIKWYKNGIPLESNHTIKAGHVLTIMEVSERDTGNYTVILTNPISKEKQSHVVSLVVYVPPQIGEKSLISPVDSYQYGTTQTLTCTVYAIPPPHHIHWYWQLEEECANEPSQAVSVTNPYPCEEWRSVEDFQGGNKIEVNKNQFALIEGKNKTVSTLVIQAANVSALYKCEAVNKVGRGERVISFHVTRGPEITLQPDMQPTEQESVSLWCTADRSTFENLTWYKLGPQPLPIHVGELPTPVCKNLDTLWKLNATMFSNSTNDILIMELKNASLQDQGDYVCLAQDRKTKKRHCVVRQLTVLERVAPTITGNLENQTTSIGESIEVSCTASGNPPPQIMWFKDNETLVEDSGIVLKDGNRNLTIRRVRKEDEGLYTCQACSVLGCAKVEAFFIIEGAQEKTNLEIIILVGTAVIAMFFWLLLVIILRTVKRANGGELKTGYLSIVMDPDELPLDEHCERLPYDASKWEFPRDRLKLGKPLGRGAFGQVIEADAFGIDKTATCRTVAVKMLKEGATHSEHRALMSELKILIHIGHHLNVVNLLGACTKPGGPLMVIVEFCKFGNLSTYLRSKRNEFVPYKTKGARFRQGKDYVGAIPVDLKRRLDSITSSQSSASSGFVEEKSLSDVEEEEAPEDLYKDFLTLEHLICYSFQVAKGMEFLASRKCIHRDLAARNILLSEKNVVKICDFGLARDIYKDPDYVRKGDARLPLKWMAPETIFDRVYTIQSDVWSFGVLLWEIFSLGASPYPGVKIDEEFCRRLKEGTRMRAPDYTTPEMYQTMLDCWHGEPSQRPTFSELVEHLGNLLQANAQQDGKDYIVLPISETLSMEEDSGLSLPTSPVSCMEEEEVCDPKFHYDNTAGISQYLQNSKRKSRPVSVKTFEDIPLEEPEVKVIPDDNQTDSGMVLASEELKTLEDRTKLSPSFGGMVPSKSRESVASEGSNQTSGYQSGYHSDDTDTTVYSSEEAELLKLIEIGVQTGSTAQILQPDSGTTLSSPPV
pIC50: −log10 of the molar value.

Example entries begin here.
| smiles.str | pIC50 |
| --- | --- |
| Nc1nc2c(c(Nc3ccc(F)cc3)n1)-c1ccccc1C2 | 4.05 |
| CC(C)c1ccccc1Nc1nc(N)nc2c1-c1ccccc1C2 | < 3.70 |
| Nc1nc2c(c(Nc3ccc(Cl)cc3)n1)-c1ccccc1C2 | < 3.70 |
| Nc1nc2c(c(Nc3ccc(C(F)(F)F)cc3)n1)-c1ccccc1C2 | < 3.70 |
| Nc1nc2c(c(Nc3cccc(Br)c3)n1)-c1ccccc1C2 | < 3.70 |

Now look at this entry.
Task: Can you share its pIC50? I mean this molecule: `Nc1nc2c(c(Nc3ccc(Br)cc3)n1)-c1ccccc1C2`
Output: 4.52

* * *

pIC50: −log10 of the molar value.
For Thymidylate synthase (Homo sapiens, UniProt P04818), measured pIC50 is reported for the entries below.

Example entries begin here.
| smiles.str | assayed.target | pIC50 |
| --- | --- | --- |
| Nc1nc2c(c(Nc3ccc(Cl)cc3F)n1)-c1ccccc1C2 | Thymidylate synthase (Homo sapiens, UniProt P04818) | < 4.89 |
| Nc1nc2c(c(Nc3cccc(Br)c3)n1)-c1ccccc1C2 | Thymidylate synthase (Homo sapiens, UniProt P04818) | < 4.92 |
| Nc1nc2c(c(Nc3ccc(F)c(Cl)c3)n1)-c1ccccc1C2 | Thymidylate synthase (Homo sapiens, UniProt P04818) | < 4.89 |
| CC(C)c1ccc(Nc2nc(N)nc3c2-c2ccccc2C3)cc1 | Thymidylate synthase (Homo sapiens, UniProt P04818) | < 4.85 |

Now look at this entry.
Task: Can you share its pIC50? I mean this compound: `Nc1nc2c(c(Nc3ccc(Cl)cc3)n1)-c1ccccc1C2`
Output: < 4.85
